Target: T1, 4H491-bN
T1 chain: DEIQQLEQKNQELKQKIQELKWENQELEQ
Test: two-hybrid library CCNG1;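 note: natural log of median RNA to DNA barcode read ratio; higher means stronger binding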
readout.name: interaction score

P = DEIQQLEQKNQELKQKIQELKWENQELEQ [4H491-bN]
Q = DEIQQLEQEIQELEQENQELEWENQELEQ [4H19-bN]
R = DKIQQLKQENQELEQEIQELEWKNQELKQ [4H2696-bN]
S = DKIQQLKQKIQELKQKNQELKWKNQELKQ [4H2944-bN]
Query :: # ascending order, key=interaction score // list labels; follow requested order
Result :: S, Q, P, R
(S: -0.954, Q: -0.636, P: -0.336, R: 0.0322)
